measured.property: melting point

Inquiry: Given COC(=O)C(=O)c1ccc(OCCCC(=O)c2ccc3ccccc3c2)cc1 , state its recorded melting point.
Reply text: 86 to 87 °C

---
Inquiry: What does the record list as melting point for Cc1c(O)cc(OC(=O)Cc2ccc(CC(=O)Oc3cc(O)c(C)c(O)c3)cc2)cc1O ?
Reply text: 276 to 278 °C

Inquiry: Entry Cc1ccc(F)cc1C(=O)Nc1ccc(C(=O)N2Cc3ccccc3Nc3ncccc32)cn1 : reported melting point = ?
Reply text: 102 to 104 °C

Inquiry: Bench note: what melting point did O=C(O)c1nn(Cc2cccc(O)c2)c2c1CCc1cc(OCc3cncnc3)ccc1-2 show?
Reply text: 251 to 256 °C

Inquiry: Requested read-out: melting point. Entry: CC(=O)NCCOc1ccc(N)cc1O
Reply text: 134 °C

====

Each item that follows carries a reported melting point.

Inquiry: Requested read-out: melting point. Entry: CS(=O)(=O)c1c(Cl)nc(N)nc1Cl
Reply text: 275 °C

Inquiry: # melting point lookup, item CCOC(=O)CC(CC(=O)OCC)N1CCC(Nc2ncc3ncnc(Nc4cccc(Br)c4)c3n2)CC1
Reply text: 132 °C

Inquiry: // melting point lookup, key: O=C(c1cc([N+](=O)[O-])ccc1Cl)c1sccc1Cl
Reply text: 114 to 116 °C

Inquiry: Entry CCc1nc(OC)c(NC(=O)N2CCN(c3cc(F)cc(F)c3)CC2)cc1C(=O)Nc1cc(CO)cc(Nc2c3ccccc3nc3ccccc23)c1 has what melting point?
Reply text: 184 to 186 °C

Inquiry: Please report the recorded melting point for C[C@]1(COc2ccc(N3CCN(Cc4ccc(N5CCC(Oc6ccc(OC(F)(F)F)cc6)CC5)cc4)CC3)cc2)Cn2cc([N+](=O)[O-])nc2O1 .
Reply text: 198 to 201 °C

Inquiry: # input molecule: C[C@H](NC(=O)C12CC3CC(CC(C3)C1)C2)C(=O)N1CCC[C@H]1C(=O)Nc1ccccc1 ; wanted: its melting point
Reply text: 119 to 121 °C

Inquiry: For the molecule shown here, CS(=O)(=O)OCCNc1ccc(C(F)(F)F)cc1[N+](=O)[O-] , give the reported melting point.
Reply text: 68 to 70 °C

Inquiry: Look at this molecule and give its reported melting point. C#Cc1ncn2c(C(F)(F)F)cc(-c3ccc(C(F)(F)F)cc3)nc12
Reply text: 163 °C

====

Recorded melting point, one value per entry.

Example cases with answers are listed next.
Inquiry: State the recorded melting point for this entry: NC(=O)c1cc2c(-c3cccc(NC(=O)c4cccc(C(F)(F)F)c4)c3)ncnc2s1
Reply text: 275 to 278 °C

Inquiry: I would be grateful if you could share the reported melting point for C[Si](C)(C)CCCCCC1=C(O)C(=O)c2ccccc2C1=O .
Reply text: 73 to 75 °C

Inquiry: I would be grateful if you could share the reported melting point for COc1ccc(-c2ocnc2-c2cc(OC)c(O)c(OC)c2)cc1O .
Reply text: 144 to 146 °C

Inquiry: Suppose we examine the compound COc1cccc(C(=O)N2CCCC(=O)c3ccc(Cl)cc3CCC2=O)c1 ; what melting point value has been reported?
Reply text: 105 to 106 °C

Inquiry: # lookup: melting point of COc1cccc2c1OCc1nc(C(=O)O)cn1-2
Reply text: 275 to 277 °C

New cases:
Inquiry: Quick one: melting point of COc1ccc2c(c1)CCN(C(=O)Cc1ccc([N+](=O)[O-])cc1)C2C (centres undefined) ?
Reply text: 112 to 114 °C

Inquiry: Please look up its melting point: CCCNC(=O)[C@H](CSCc1ccccc1)NC(=O)c1cc2cccc(NS(=O)(=O)c3cccs3)c2[nH]1
Reply text: 124 to 125 °C

Inquiry: Bench note: what melting point did CCN1CCc2ccc(Nc3ncc(Cl)c(NC4CCCCNC4=O)n3)cc2CC1 (centres undefined) show?
Reply text: 232 to 234 °C

Inquiry: Look up melting point: COC(=O)c1cccc([N+](=O)[O-])c1Nc1cccc2[nH]ncc12
Reply text: 152 to 154 °C
